Recorded measurements of IC50, one per entry
STUDY_TARGET: human Y4 receptor (human, UniProt P50391 1-375)
Sequence (P50391 whole entry): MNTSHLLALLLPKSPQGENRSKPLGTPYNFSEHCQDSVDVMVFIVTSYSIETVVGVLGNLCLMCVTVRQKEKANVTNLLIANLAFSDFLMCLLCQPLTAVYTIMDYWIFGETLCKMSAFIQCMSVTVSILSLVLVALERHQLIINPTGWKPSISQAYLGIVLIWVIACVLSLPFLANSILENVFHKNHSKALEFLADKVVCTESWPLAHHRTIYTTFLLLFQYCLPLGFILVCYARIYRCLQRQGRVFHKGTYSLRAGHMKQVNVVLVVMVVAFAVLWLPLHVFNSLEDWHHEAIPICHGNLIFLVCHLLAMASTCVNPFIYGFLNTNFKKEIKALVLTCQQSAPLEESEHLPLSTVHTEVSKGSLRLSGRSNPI
EXPERIMENT: 125I-PP displacement
Please reply with the bare figure in nM and do not write the unit itself.

Completed entries (count: 3):
[[record]]
binder = "PAPLEPTYPGDNATPEEKAKYYSELRRYINKLTRPRY [4061239]"
value_type = "IC50"
measured_result = 0.054

[[record]]
binder = "GAPLEPKYPGDNATPEEMAKYAAELRRYIDKLTRPRY [4061238]"
value_type = "IC50"
measured_result = 0.138

[[record]]
binder = "PAPLEPKYPGDNATPEEMAKYAAELRRYIDKLTRPRY [4061237]"
value_type = "IC50"
measured_result = 0.16


Request: Look up IC50: PLEPHYPGDDATPQQMAHYYSELRRYINKLTRPRY [4457895]
Result: 0.145

Request: Reported IC50, binder PAPLEPKYPGDNATPEQMAKYAAELRRYINKLTRPRY [4068672] : ____
Result: 0.059

Request: Report IC50 for GAPLEPKYPGDNATPEEKAKYAAELRRYINKLTRPRY [4061236] please.
Result: 0.052

Request: May I ask what IC50 has been recorded for PAPLEPKYPGDNATPEEKAKYAAELRRYINKLTRPRY [4061235] ?
Result: 0.054
